measurement.target: Muscarinic acetylcholine receptor M2 (Homo sapiens)
Sequence (P08172 whole entry): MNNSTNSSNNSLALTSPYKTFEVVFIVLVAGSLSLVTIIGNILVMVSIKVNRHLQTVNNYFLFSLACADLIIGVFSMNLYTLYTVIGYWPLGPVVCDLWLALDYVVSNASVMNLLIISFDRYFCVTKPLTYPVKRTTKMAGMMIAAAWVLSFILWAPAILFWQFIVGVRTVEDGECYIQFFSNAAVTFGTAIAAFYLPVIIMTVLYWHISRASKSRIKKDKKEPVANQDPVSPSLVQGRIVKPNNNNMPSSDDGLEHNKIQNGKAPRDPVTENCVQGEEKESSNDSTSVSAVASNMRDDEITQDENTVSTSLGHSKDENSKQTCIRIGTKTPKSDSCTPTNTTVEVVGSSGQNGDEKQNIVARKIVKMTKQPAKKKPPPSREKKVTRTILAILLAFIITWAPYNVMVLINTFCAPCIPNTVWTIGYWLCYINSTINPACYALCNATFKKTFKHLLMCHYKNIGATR
test: Binding affinity against human cloned Muscarinic acetylcholine receptor M2.
Field 'label' (enum: rule met / rule not met). Set to rule met when Ki is strictly under 0.3 nM; else rule not met.

Consider the worked cases shown below.
compound: C[C@@H]1CN(C2CCN(S(=O)(=O)c3ccccc3)CC2)CCN1[C@@H](C)c1ccc(S(=O)(=O)c2ccc3c(c2)OCO3)cc1
class.assignment: rule not met

compound: COc1ccc(S(=O)(=O)c2ccc(C(C#N)N3CCN(C4CCCCC4)C[C@@H]3C)cc2)cc1 (stereo partly drawn)
class.assignment: rule not met

compound: CCS(=O)(=O)N1CCC(N2CCN([C@@H](C)c3ccc(S(=O)(=O)c4ccc5c(c4)OCO5)cc3)[C@H](C)C2)CC1
class.assignment: rule not met

compound: CCNC(=O)N1CCC(N2CCN([C@@H](C)c3ccc(S(=O)(=O)c4ccc5c(c4)OCO5)cc3)[C@H](C)C2)CC1
class.assignment: rule not met

compound: COc1ccc(S(=O)(=O)c2ccc([C@@H](C)N3CCN(C4CCCCC4)[C@H](C)C3)cc2)cc1
class.assignment: rule met

Here's the next entry for you.
Please state whether Ki is below 0.3 nM for `COc1ccc(S(=O)(=O)c2ccc([C@@H](C)N3CCN(C4CCCCC4)[C@@H](C)C3)cc2)cc1` rule met
